Exercise: for every item that follows, state its recorded Saluretic score.
Tested on: Rattus norvegicus
Assay: Saluretic property after administration in rats
Type: functional
One number for each entry.

CC(C)(C)c1cc(I)c2c(c1)C[N+](C)(C)C1(CCC(C(C)(C)C)CC1)O2.[I-] (stereo unspecified) ... 0

List Saluretic score for every entry below, keeping the order given.
1. CC(C)(C)c1cc(Cl)c2c(c1)CNC1(CCCCC1)O2
2. CN1CCC2(CC1)NCc1cc(C(C)(C)C)cc(Cl)c1O2
3. CC(C)(C)c1cc(I)c2c(c1)CNC1(O2)C2CC3C(C2)C31 (stereo unspecified)
4. CC(C)(C)c1cc(Cl)c2c(c1)C[N+](C)(C)C1(CCCCC1)O2.[I-]
5. CC(C)(C)c1cc(I)c2c(c1)CNC1(CCSCC1)O2

Result ::
3
3
5
0
4

----------
Test system: Rattus norvegicus
Test: Saluretic property after administration in rats
Format: functional
Please go through the items and note down their Saluretic score.

Below are some molecules; for each one, tell me its Saluretic score.
1. CC(C)(C)c1cc(I)c2c(c1)CNC1(CCC3(CC1)NCc1cc(C(C)(C)C)cc(I)c1O3)O2 (stereo unspecified)
2. CN1CCC2(CC1)NCc1cc(C(C)(C)C)cc(I)c1O2
3. CC(C)(C)c1cc(I)c2c(c1)CNC1(CCN(CCc3ccccc3)CC1)O2
4. CC(C)(C)c1cc(I)c(O)c(CN)c1.Cl
5. CC(C)(C)c1cc(I)c2c(c1)CNC1(CCCCC1)O2
6. CC(C)(C)c1cc(I)c2c(c1)CNC1(CCC(C(C)(C)C)CC1)O2 (stereo unspecified)

Result ::
1: 2; 2: 4; 3: 4; 4: 6; 5: 5; 6: 4

----------
Provide the reported Antihypertensive score of each item.
Tested on: Rattus norvegicus
Test: Antihypertensive activity after administration of 5 mg/kg dose in spontaneously hypertensive(SH) rats; score is for average value of four animals
Format: functional

CC(C)(C)c1cc(I)c2c(c1)CNC1(CCCCCCCCCCC1)O2 ... 0
CC(C)(C)c1cc(I)c2c(c1)CNC1(O2)C2CC3CC(C2)CC1C3 (stereo unspecified) ... 0
CC(C)(C)c1cc(I)c2c(c1)CNC1(CCC(C(=O)O)CC1)O2 (stereo unspecified) ... 2
CC(C)(C)c1cc(I)c2c(c1)C[N+](C)(C)C1(CCCCC1)O2.[I-] ... 2
CC(C)(C)c1cc(I)c2c(c1)CNC1(O2)C2CC3C(C2)C31 (stereo unspecified) ... 1

Query :: Report Antihypertensive score, nothing else, for this molecule: CC(C)(C)c1cc(I)c2c(c1)CNC1(CCN(CCc3ccccc3)CC1)O2
Result :: 0

----------
Tested on: Rattus norvegicus
Experiment: Saluretic property after administration in rats
Assay type: functional
measuredParameter: Saluretic score
Answers are plain numbers.

Before answering, review these 3 worked examples.
CC(C)(C)c1cc(I)c2c(c1)CNC1(O2)C2CC3CC(C2)CC1C3 (stereo not given) ... 3
CC(C)(C)c1cc(I)c2c(c1)CNC1(CCC(C(=O)O)CC1)O2 (stereo not given) ... 4
CC(C)(C)c1cc(Cl)c(O)c(CN)c1.Cl ... 6

Look up Saluretic score for the entries below, preserving their order.
1. CC(=O)N1CCC2(CC1)Oc1c(I)cc(C(C)(C)C)cc1C[N+]2(C)C.[I-]
2. CC(C)(C)c1cc(I)c2c(c1)C[N+](C)(C)C1(CCNCC1)O2.[Cl-]
3. CC(C)(C)c1cc(I)c2c(c1)CNC1(CCCCCCCCCCC1)O2
4. CC1(C)CC(C)(C)CC2(C1)NCc1cc(C(C)(C)C)cc(I)c1O2
5. CC(C)(C)c1cc(I)c2c(c1)C[N+](C)(C)CO2.[I-]
6. CC(C)(C)c1cc(I)c2c(c1)C[N+](C)(C)C1(CCCCC1)O2.[I-]

Result ::
[0, 0, 4, 4, 0, 0]

Query :: Please look at CC(=O)Oc1cc(C(C)(C)C)cc2c1OC1(CCCCC1)[N+](C)(C)C2.[I-] and tell me its recorded Saluretic score on Rattus norvegicus.
Result :: 0

The reported numbers originate from ChEMBL document CHEMBL1122216.
